- Tested on: UACC-257 melanoma
- assay name: NCI-60 one-dose screen, 48 h
- condition summary: 10 µM unless noted
About 83,000 compounds went through this panel and 20% of them were active in at least one assay; those are over-represented in the sample as a whole. Activity calls are given as the source filed them. Rule for the calls: active = growth percent below 10; inactive = the rest.
Your reply should match one of these outcome classes. yes for active, no for inactive

QUERY: # lookup: test call for `CC/C=C\C[C@@H]1C/C=C2/C(=O)C=C[C@H]2C/C=C\CCCC(=O)O1`
RESULT: yes

QUERY: Any idea what this test logged for COc1ccc(S(=O)(=O)n2cc(C3OC(c4cc(OC)c(OC)c(OC)c4)=NN3C(C)=O)c3ccccc32)cc1OC (configuration not stated) ?
RESULT: no

QUERY: So what was the verdict on `O=C(Cc1ccc(F)c(Cl)c1)Nc1cc(C2(C(F)(F)F)CC2)nn1CC1CCCCC1` in this test?
RESULT: yes

QUERY: So what was the verdict on `CCc1ccc(Oc2c(-c3ccc(OCCc4cccc(C(F)(F)F)c4)cc3O)n[nH]c2C(F)(F)F)cc1` in this test?
RESULT: no

QUERY: Which outcome did this test record for the compound CC1=NN(c2ccc(S(=O)(=O)O)cc2)C(=O)C1N=Nc1ccc(-c2ccc(N=Nc3ccc(OS(=O)(=O)c4ccc(C)cc4)cc3)c(S(=O)(=O)O)c2)cc1 (configuration not stated) ?
RESULT: no

QUERY: Per the assay record, what outcome was assigned to O=C(O)C(c1ccccc1)N1C(=O)CSC1=S (configuration not stated) ?
RESULT: no

QUERY: Each compound tested received a call. Report the one for COc1cc(C2CC(c3ccc(N(C)C)cc3)=NN2C(C)=O)cc(OC)c1OC (configuration not stated) .
RESULT: no

QUERY: Just curious, what result did `O=c1c2cc(F)ccc2sc2c(NCCN3CCOCC3)nc3ccccc3c12` get here?
RESULT: no

QUERY: What outcome does the record of this test show for `COc1ccc(-c2nc(NCCO)[nH]c(=O)c2C#N)cc1` ?
RESULT: no

QUERY: Hey, what did the test say about `COc1cc2cc(Oc3ccc(NC(=O)Nc4ccc(Cl)c(C(F)(F)F)c4)cc3)c(C)nc2cc1OCCN1CCOCC1` ?
RESULT: no

QUERY: How did this test come out for CCOC(=O)C1=C(N)Oc2c(sc3c(CC)cccc23)C1c1ccc(F)cc1 (configuration not stated) ?
RESULT: no

QUERY: What did the test return for `Oc1ccc(C#CCOc2ccccc2)cc1CNCCN(Cc1ccccn1)Cc1ccccn1` ?
RESULT: no

QUERY: Which outcome did this test record for the compound `O=C(CCN1C(=O)/C(=C/c2ccc(O)cc2)SC1=S)Nc1ccccc1` ?
RESULT: no

QUERY: Give the logged outcome of this assay for the following compound: `Cc1onc2c(-c3ccccc3)n[nH]c(=O)c12`
RESULT: no

QUERY: Hi, do you know how O=C1CCC(C(=O)NCCNCCNC(=O)C2CCC(=O)N2)N1 (configuration not stated) came out in this test?
RESULT: no

QUERY: Outcome logged for `CC(=O)Oc1ccccc1C(=O)N=C1[Se]CCCN1C(=O)c1ccccc1OC(C)=O` in this assay:
RESULT: no

QUERY: Can you look up the reported call for `CNCCCNc1nc2ccccc2c2c(=O)c3cc(OC)ccc3sc12` for me?
RESULT: no

QUERY: Which outcome was assigned to `CN1C(=O)CNC(=O)[C@H](NC(=O)c2nc3ccccc3cc2O)CSSC[C@H]1C(=O)NCCCc1nc2ccccc2cc1O` in this test?
RESULT: no

QUERY: Please let me know the test result on file for `COc1ccc(NC(=O)n2nc(/C=C\c3ccc(O)c(OC)c3)cc2/C=C\c2ccc(O)c(OC)c2)cc1` .
RESULT: no

QUERY: Recorded test outcome, item COc1ccc(C2C(N)=NNC2c2cccc(O)c2)cc1 (configuration not stated)
RESULT: no

QUERY: Assay outcome for `Nc1nn(C(=O)Nc2ccc(Cc3ccccc3)cc2)c2ccc(Cl)cc12` : what was it?
RESULT: no

QUERY: Answer briefly: the call reported for `COc1ccc2[nH]c(-c3ccccc3)c(/C=C(\C#N)S(=O)(=O)c3ccccc3)c2c1` in this assay.
RESULT: no

Source listed as PubChem BioAssay (NCI).
